Where do the numbers come from? From patent US11427549B2.

Would you mind telling me the reported pest or weed control at 31 g/ha of each entry?
Test system: blackgrass (Alopecurus myosuroides)
Test: Test A postemergence, blackgrass
Assay type: in vivo
Conditions: Alopecurus myosuroides, post-emergence, 240 h, 31 g ai/ha, 0 to 100 scale (0 no effect, 100 complete control), read-out: Plant response rating, Blackgrass
Give bare numbers, in %.

Need pest or weed control at 31 g/ha for each of these molecules.
1. CN1C(=O)c2cccc(Oc3ncc(Cl)cn3)c2C1CCCC(F)(F)F (stereo not drawn) [Compound 12]
2. O=C1OC(CCC(F)(F)F)c2c(Oc3ncc(Cl)cn3)cccc21 (stereo not drawn) [Compound 4]
3. CCCC1OC(=O)Cc2cccc(Oc3ncc(Cl)cn3)c21 (stereo not drawn) [Compound 35]
4. O=C1c2cccc(Oc3ncc(Cl)cn3)c2C1CCCC(F)(F)F (stereo not drawn) [Compound 22]
5. O=C1OCc2cccc(Oc3ncc(Cl)cn3)c2C1CCCCC(F)(F)F (stereo not drawn) [Compound 34]
6. FC(F)(F)CCCC1CCc2cccc(Oc3ncc(Cl)cn3)c21 (stereo not drawn) [Compound 9]
7. FC(F)(F)CC[C@H]1OCc2cccc(Oc3ncc(Cl)cn3)c21 [Compound 20]

OUT:
1: 0; 2: 40; 3: 10; 4: 0; 5: 0; 6: 20; 7: 80

Need pest or weed control at 31 g/ha for each of these molecules.
1. O=C1CC(CCC(F)(F)F)c2c(Oc3ncc(Cl)cn3)cccc21 (stereo not drawn) [Compound 11]
2. O=C1CCC(CCCC(F)(F)F)c2c(Oc3ncc(Cl)cn3)cccc21 (stereo not drawn) [Compound 30]

OUT:
1. 0
2. 20

---

Tested on: kochia (Kochia scoparia)
Experiment: Test A postemergence, kochia
Format: in vivo
Conditions: Bassia scoparia, post-emergence, 240 h, 31 g ai/ha, 0 to 100 scale (0 no effect, 100 complete control), read-out: Plant response rating, Kochia
Would you mind telling me the reported pest or weed control at 31 g/ha of each entry?
Numbers only, in %.

Sample records with pest or weed control at 31 g/ha:
• O=C1c2cccc(Oc3ncc(Cl)cn3)c2C1CCC(F)(F)F (stereo not drawn) [Compound 24] = 20
• O=C1OCC(CCC(F)(F)F)c2c(Oc3ncc(Cl)cn3)cccc21 (stereo not drawn) [Compound 25] = 30
• O=C1OCc2cccc(Oc3ncc(Cl)cn3)c2C1CCCC(F)(F)F (stereo not drawn) [Compound 26] = 20
• O=C1Cc2cccc(Oc3ncc(Cl)cn3)c2C(CCCC(F)(F)F)O1 (stereo not drawn) [Compound 17] = 30
• O=C1OCc2cccc(Oc3ncc(Cl)cn3)c2C1CCC(F)(F)F (stereo not drawn) [Compound 29] = 20

Need pest or weed control at 31 g/ha for each of these molecules.
1. FC(F)(F)CCCC1COc2cccc(Oc3ncc(Cl)cn3)c21 (stereo not drawn) [Compound 33]
2. O=C1O[C@H](CCC(F)(F)F)c2c(Oc3ncc(Cl)cn3)cccc21 [Compound 19]

OUT:
1: 30; 2: 80

Need pest or weed control at 31 g/ha for each of these molecules.
1. FC(F)(F)CCCC1CCc2cccc(Oc3ncc(Cl)cn3)c21 (stereo not drawn) [Compound 9]
2. CN1C(=O)c2cccc(Oc3ncc(Cl)cn3)c2C1CCCC(F)(F)F (stereo not drawn) [Compound 12]

OUT:
1: 50; 2: 0

---

Would you mind telling me the reported pest or weed control at 31 g/ha of each entry?
Tested on: pigweed (Amaranthus retroflexus)
Experiment: Test A preemergence, pigweed
Format: in vivo
Settings: Amaranthus retroflexus, pre-emergence, 240 h, 31 g ai/ha, 0 to 100 scale (0 no effect, 100 complete control), read-out: Plant response rating, Pigweed
Numbers only, in %.

* FC(F)(F)CCC1OCc2cccc(Oc3ncc(Cl)cn3)c21 (stereo not drawn) [Compound 8] | 100
* CCCC1OC(=O)Cc2cccc(Oc3ncc(Cl)cn3)c21 (stereo not drawn) [Compound 35] | 0

Item O=C1CCC(CCCC(F)(F)F)c2c(Oc3ncc(Cl)cn3)cccc21 (stereo not drawn) [Compound 30] was tested on pigweed (Amaranthus retroflexus); the reported pest or weed control at 31 g/ha is 10
